target-under-test: Tyrosine-protein kinase ABL1 (Homo sapiens, UniProt P00519)
Sequence (P00519 whole entry): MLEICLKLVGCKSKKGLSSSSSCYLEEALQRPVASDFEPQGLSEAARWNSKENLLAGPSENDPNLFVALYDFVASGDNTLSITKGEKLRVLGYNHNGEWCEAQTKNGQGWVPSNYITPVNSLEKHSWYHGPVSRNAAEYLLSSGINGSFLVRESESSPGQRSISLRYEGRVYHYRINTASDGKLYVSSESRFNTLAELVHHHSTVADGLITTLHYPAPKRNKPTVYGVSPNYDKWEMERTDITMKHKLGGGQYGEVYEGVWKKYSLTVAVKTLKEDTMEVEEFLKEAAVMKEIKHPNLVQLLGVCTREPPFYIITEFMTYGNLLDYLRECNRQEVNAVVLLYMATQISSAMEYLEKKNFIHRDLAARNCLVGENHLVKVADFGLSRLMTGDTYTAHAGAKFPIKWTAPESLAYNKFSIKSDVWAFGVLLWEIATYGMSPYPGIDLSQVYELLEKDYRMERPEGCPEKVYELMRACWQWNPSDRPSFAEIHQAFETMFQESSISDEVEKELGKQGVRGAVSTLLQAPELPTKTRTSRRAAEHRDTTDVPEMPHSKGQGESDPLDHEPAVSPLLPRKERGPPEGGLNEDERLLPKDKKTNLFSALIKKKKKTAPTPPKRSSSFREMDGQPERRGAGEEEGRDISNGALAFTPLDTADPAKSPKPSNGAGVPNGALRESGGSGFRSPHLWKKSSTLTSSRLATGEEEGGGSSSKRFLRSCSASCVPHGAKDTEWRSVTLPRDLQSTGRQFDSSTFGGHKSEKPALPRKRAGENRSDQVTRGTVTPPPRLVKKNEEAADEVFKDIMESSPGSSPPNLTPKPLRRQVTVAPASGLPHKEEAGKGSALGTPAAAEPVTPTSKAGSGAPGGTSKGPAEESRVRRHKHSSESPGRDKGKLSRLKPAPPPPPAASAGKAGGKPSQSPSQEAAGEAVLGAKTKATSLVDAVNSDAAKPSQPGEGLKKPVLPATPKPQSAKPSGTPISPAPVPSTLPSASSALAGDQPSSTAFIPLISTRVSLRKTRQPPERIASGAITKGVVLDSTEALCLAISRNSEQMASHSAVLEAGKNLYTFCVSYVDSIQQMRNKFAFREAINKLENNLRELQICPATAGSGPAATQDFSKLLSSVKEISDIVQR
run-description: Inhibition of Abl by TR-FRET assay
assay-readout: pIC50
By convention, pIC50 is the negative base-10 log of a molar concentration.

Please report the recorded pIC50 for Cc1ccn(-c2cccc(C(F)(F)F)c2)c(=O)c1-c1ccc2nc(N)ncc2c1 .
5.85

* * *

I'd be grateful if you could share measured pIC50 for these entries.
By convention, pIC50 is the negative base-10 log of a molar concentration.

Recorded pIC50 for Cc1ccc(-n2ccc(C)c(-c3ccc4nc(N)ncc4c3)c2=O)cc1F with UniProt P06239, please?
4.60

Recorded pIC50 for Cc1ccn(-c2cccc(C(F)(F)F)c2)c(=O)c1-c1ccc2nc(N)ncc2c1 with UniProt P06239, please?
5.77

Recorded pIC50 for Cc1ccn(-c2ccc(N3CCOCC3)cc2)c(=O)c1-c1ccc2nc(N)ncc2c1 with UniProt P06239, please?
5.74

Recorded pIC50 for Cc1ccn(CCC2CCCC2)c(=O)c1-c1ccc2nc(N)ncc2c1 with UniProt P06239, please?
6.24

Recorded pIC50 for Cc1ccn(-c2ccc3c(c2)NCC3(C)C)c(=O)c1-c1ccc2nc(N)ncc2c1 with UniProt P06239, please?
7.72

* * *

assay-readout: pIC50
By convention, pIC50 is the negative base-10 log of a molar concentration.

Recorded pIC50 for Cc1ccc(C(=O)NCCC2CCCC2)cc1C(=O)Nc1ccc(N)nc1 with Mast/stem cell growth factor receptor Kit (Homo sapiens), please?
7.11

Recorded pIC50 for Cc1ccn(-c2ccc(-c3ncco3)cc2)c(=O)c1-c1ccc2nc(N)ncc2c1 with Mast/stem cell growth factor receptor Kit (Homo sapiens), please?
7.66

Recorded pIC50 for Cc1ccn(-c2ccc(C(C)(C)C)cc2)c(=O)c1-c1ccc2nc(N)ncc2c1 with Mast/stem cell growth factor receptor Kit (Homo sapiens), please?
8.68

Recorded pIC50 for Cc1ccn(-c2ccc3c(c2)NCC3(C)C)c(=O)c1-c1ccc2nc(N)ncc2c1 with Mast/stem cell growth factor receptor Kit (Homo sapiens), please?
8.21

Recorded pIC50 for Cc1ccn(-c2ccccc2)c(=O)c1-c1ccc2nc(N)ncc2c1 with Mast/stem cell growth factor receptor Kit (Homo sapiens), please?
6.68

Recorded pIC50 for Cc1ccn(-c2ccc(C(F)(F)F)cc2)c(=O)c1-c1ccc2nc(N)ncc2c1 with Mast/stem cell growth factor receptor Kit (Homo sapiens), please?
8.10

Recorded pIC50 for Cc1ccn(CCC2CCCC2)c(=O)c1-c1ccc2nc(N)ncc2c1 with Mast/stem cell growth factor receptor Kit (Homo sapiens), please?
9.00

* * *

run-description: Half life in Sprague-Dawley rat at 10 mg/kg, po
Format: ADME, organism-based
Design: dose 10 mg/kg, route oral
experimental-conditions: in vivo
assay-readout: half-life
Enter the number, and then the unit.

Please report the recorded half-life for Cc1ccn(-c2cccc(C(F)(F)F)c2)c(=O)c1-c1ccc2nc(N)ncc2c1 .
1.83 h

Please report the recorded half-life for Cc1ccn(-c2ccc(-c3ncco3)cc2)c(=O)c1-c1ccc2nc(N)ncc2c1 .
2.6 h

* * *

run-description: Inhibition of p38 by TR-FRET assay
assay-readout: IC50

Please report the recorded IC50 for Cc1ccn(-c2cccc(C(F)(F)F)c2)c(=O)c1-c1ccc2nc(N)ncc2c1 .
6.1 µM

Please report the recorded IC50 for Cc1ccn(-c2ccc(-n3cccn3)cc2)c(=O)c1-c1ccc2nc(N)ncc2c1 .
3.8 µM

Please report the recorded IC50 for Cc1ccn(-c2ccc(Cl)c(F)c2)c(=O)c1-c1ccc2nc(N)ncc2c1 .
9.2 µM

Please report the recorded IC50 for COc1ccc(-n2ccc(C)c(-c3ccc4nc(N)ncc4c3)c2=O)cc1 .
6.5 µM

Please report the recorded IC50 for Cc1cc(-n2ccc(C)c(-c3ccc4nc(N)ncc4c3)c2=O)ccc1F .
4.5 µM

Please report the recorded IC50 for COc1cccc(-n2ccc(C)c(-c3ccc4nc(N)ncc4c3)c2=O)c1 .
8 µM

Please report the recorded IC50 for Cc1ccn(-c2ccc(C(C)(C)C)cc2)c(=O)c1-c1ccc2nc(N)ncc2c1 .
0.028 µM

* * *

run-description: Inhibition of p38 by TR-FRET assay
Mark 1.0 only when IC50 stays strictly below 5 µM. Values equal to the cut-off are 0.0.

Given the entry Cc1ccn(-c2ccc(C(F)(F)F)cc2)c(=O)c1-c1ccc2nc(N)ncc2c1 , would its reported IC50 be below 5 µM?
1.0

Given the entry Cc1ccc(C(=O)NCCC2CCCC2)cc1C(=O)Nc1ccc(N)nc1 , would its reported IC50 be below 5 µM?
1.0

Given the entry Cc1ccn(-c2ccc(-c3ncco3)cc2)c(=O)c1-c1ccc2nc(N)ncc2c1 , would its reported IC50 be below 5 µM?
0.0

Given the entry Cc1ccc(-n2ccc(C)c(-c3ccc4nc(N)ncc4c3)c2=O)cc1F , would its reported IC50 be below 5 µM?
0.0

Given the entry Cc1ccn(-c2ccc(N3CCOCC3)cc2)c(=O)c1-c1ccc2nc(N)ncc2c1 , would its reported IC50 be below 5 µM?
0.0

Given the entry CCOC(=O)c1ccc(-n2ccc(C)c(-c3ccc4nc(N)ncc4c3)c2=O)cc1 , would its reported IC50 be below 5 µM?
0.0

Given the entry Cc1ccn(-c2ccc3c(c2)NCC3(C)C)c(=O)c1-c1ccc2nc(N)ncc2c1 , would its reported IC50 be below 5 µM?
1.0

Given the entry Cc1ccn(CCC2CCCC2)c(=O)c1-c1ccc2nc(N)ncc2c1 , would its reported IC50 be below 5 µM?
0.0

Given the entry CC(=O)c1ccc(-n2ccc(C)c(-c3ccc4nc(N)ncc4c3)c2=O)cc1 , would its reported IC50 be below 5 µM?
0.0

* * *

A short record of IC50 observed with UniProt P06239 follows.
Sequence (P06239 whole entry): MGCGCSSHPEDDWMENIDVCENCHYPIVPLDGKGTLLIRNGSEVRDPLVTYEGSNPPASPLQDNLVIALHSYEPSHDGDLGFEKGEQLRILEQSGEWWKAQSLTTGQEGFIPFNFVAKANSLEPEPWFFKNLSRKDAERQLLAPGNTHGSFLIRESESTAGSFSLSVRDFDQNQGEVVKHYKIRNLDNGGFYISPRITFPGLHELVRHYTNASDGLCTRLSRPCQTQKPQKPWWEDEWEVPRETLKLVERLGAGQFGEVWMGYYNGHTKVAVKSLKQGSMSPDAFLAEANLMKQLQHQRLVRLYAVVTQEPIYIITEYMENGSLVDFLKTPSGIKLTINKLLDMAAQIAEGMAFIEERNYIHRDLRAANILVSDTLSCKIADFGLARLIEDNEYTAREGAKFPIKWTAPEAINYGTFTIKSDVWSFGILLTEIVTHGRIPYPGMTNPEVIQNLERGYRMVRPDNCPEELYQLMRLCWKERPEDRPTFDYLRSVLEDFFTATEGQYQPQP
Enter the number, and then the unit.

Please report the recorded IC50 for Cc1ccn(-c2ccc(C(C)(C)C)cc2)c(=O)c1-c1ccc2nc(N)ncc2c1 .
7.2 nM

Please report the recorded IC50 for Cc1ccn(-c2ccc(-n3cccn3)cc2)c(=O)c1-c1ccc2nc(N)ncc2c1 .
110 nM

Please report the recorded IC50 for COc1ccc(-n2ccc(C)c(-c3ccc4nc(N)ncc4c3)c2=O)cc1 .
150 nM

Please report the recorded IC50 for CC(=O)c1ccc(-n2ccc(C)c(-c3ccc4nc(N)ncc4c3)c2=O)cc1 .
570 nM

* * *

I'd be grateful if you could share measured pIC50 for these entries.
target-under-test: UniProtKB P12931
Sequence (P12931 2-536 limits assumed): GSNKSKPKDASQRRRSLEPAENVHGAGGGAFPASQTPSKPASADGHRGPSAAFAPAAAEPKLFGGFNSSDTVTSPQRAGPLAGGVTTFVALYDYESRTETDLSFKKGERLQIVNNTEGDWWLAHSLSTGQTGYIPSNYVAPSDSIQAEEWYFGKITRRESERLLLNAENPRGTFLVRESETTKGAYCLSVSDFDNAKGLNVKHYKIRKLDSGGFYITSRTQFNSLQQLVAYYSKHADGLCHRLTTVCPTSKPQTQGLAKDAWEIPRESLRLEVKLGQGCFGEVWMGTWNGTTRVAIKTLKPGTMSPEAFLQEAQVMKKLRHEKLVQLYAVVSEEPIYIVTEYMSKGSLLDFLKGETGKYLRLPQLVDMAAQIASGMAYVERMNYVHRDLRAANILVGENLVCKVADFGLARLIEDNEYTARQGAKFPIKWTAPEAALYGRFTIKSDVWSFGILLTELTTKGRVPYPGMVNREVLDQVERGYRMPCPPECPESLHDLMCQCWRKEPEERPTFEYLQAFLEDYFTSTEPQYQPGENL
By convention, pIC50 is the negative base-10 log of a molar concentration.

Recorded pIC50 for Cc1ccc(-n2ccc(C)c(-c3ccc4nc(N)ncc4c3)c2=O)cc1F with UniProtKB P12931, please?
4.60

Recorded pIC50 for Cc1ccn(-c2ccc(C(C)(C)C)cc2)c(=O)c1-c1ccc2nc(N)ncc2c1 with UniProtKB P12931, please?
7.44

Recorded pIC50 for CC(=O)c1ccc(-n2ccc(C)c(-c3ccc4nc(N)ncc4c3)c2=O)cc1 with UniProtKB P12931, please?
6.41

Recorded pIC50 for Cc1ccn(-c2ccc(-n3cccn3)cc2)c(=O)c1-c1ccc2nc(N)ncc2c1 with UniProtKB P12931, please?
7.11

Recorded pIC50 for Cc1ccn(-c2cccc(C(F)(F)F)c2)c(=O)c1-c1ccc2nc(N)ncc2c1 with UniProtKB P12931, please?
6.07

Recorded pIC50 for Cc1ccn(CCC2CCCC2)c(=O)c1-c1ccc2nc(N)ncc2c1 with UniProtKB P12931, please?
6.10

Recorded pIC50 for COc1cccc(-n2ccc(C)c(-c3ccc4nc(N)ncc4c3)c2=O)c1 with UniProtKB P12931, please?
6.57

Recorded pIC50 for COc1ccc(-n2ccc(C)c(-c3ccc4nc(N)ncc4c3)c2=O)cc1 with UniProtKB P12931, please?
6.82

Recorded pIC50 for Cc1ccn(-c2ccc3c(c2)NCC3(C)C)c(=O)c1-c1ccc2nc(N)ncc2c1 with UniProtKB P12931, please?
6.40

* * *

run-description: AUC (0 to t) in Sprague-Dawley rat at 2 mg/kg, po
Format: ADME, organism-based
Parameters: dose 2 mg/kg, route oral
experimental-conditions: plasma
assay-readout: AUC(0-t)
Enter the number, and then the unit.

Please report the recorded AUC(0-t) for Cc1ccc(-n2ccc(C)c(-c3ccc4nc(N)ncc4c3)c2=O)cc1F .
1310 ng·h/mL

* * *

run-description: Oral bioavailability in Sprague-Dawley rat at 2 mg/kg
Assay type: ADME, organism-based
experimental-conditions: in vivo
assay-readout: bioavailability (%)
Field: numeric (%). Do not append units.

Please report the recorded bioavailability for Cc1ccc(-n2ccc(C)c(-c3ccc4nc(N)ncc4c3)c2=O)cc1F .
100

* * *

target-under-test: Mast/stem cell growth factor receptor Kit (Homo sapiens)
Sequence (P10721 whole entry): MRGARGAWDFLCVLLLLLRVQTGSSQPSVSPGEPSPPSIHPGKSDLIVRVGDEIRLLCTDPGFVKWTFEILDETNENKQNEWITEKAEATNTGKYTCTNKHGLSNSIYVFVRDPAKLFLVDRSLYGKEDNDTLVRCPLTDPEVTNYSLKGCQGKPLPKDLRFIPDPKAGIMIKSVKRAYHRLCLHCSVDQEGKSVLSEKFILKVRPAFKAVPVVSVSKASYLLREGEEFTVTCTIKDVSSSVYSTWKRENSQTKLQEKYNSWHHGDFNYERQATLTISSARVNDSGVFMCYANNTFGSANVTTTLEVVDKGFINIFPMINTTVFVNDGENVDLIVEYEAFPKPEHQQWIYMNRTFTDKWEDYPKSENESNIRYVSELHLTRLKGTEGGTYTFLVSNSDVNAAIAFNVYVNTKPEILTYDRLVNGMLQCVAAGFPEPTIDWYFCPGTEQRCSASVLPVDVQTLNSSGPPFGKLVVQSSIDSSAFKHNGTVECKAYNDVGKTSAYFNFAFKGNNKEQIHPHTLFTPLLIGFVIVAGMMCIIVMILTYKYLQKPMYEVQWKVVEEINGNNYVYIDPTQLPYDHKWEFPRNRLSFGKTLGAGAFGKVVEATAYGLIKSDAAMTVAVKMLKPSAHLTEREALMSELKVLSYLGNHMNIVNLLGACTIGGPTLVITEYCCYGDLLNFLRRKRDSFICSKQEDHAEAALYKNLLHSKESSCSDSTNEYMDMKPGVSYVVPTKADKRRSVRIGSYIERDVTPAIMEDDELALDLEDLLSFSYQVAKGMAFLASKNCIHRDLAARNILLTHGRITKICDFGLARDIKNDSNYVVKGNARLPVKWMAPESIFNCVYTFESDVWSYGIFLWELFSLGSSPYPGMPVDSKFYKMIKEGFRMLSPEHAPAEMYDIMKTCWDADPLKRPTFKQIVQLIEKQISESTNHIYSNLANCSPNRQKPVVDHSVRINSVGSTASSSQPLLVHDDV
I'd be grateful if you could share measured pIC50 for these entries.
By convention, pIC50 is the negative base-10 log of a molar concentration.

Please report the recorded pIC50 for Cc1cc(-n2ccc(C)c(-c3ccc4nc(N)ncc4c3)c2=O)ccc1F .
7.74

Please report the recorded pIC50 for Cc1ccc(-n2ccc(C)c(-c3ccc4nc(N)ncc4c3)c2=O)cc1F .
7.92

Please report the recorded pIC50 for CCOC(=O)c1ccc(-n2ccc(C)c(-c3ccc4nc(N)ncc4c3)c2=O)cc1 .
7.17

Please report the recorded pIC50 for COc1cccc(-n2ccc(C)c(-c3ccc4nc(N)ncc4c3)c2=O)c1 .
7.55

Please report the recorded pIC50 for Cc1ccn(-c2ccc(C(F)(F)F)cc2)c(=O)c1-c1ccc2nc(N)ncc2c1 .
7.74

Please report the recorded pIC50 for Cc1ccn(-c2ccc(Cl)cc2)c(=O)c1-c1ccc2nc(N)ncc2c1 .
7.85

Please report the recorded pIC50 for Cc1ccn(-c2ccc(C(C)(C)C)cc2)c(=O)c1-c1ccc2nc(N)ncc2c1 .
7.80

Please report the recorded pIC50 for Cc1ccn(-c2ccc(N3CCOCC3)cc2)c(=O)c1-c1ccc2nc(N)ncc2c1 .
7.14

Please report the recorded pIC50 for Cc1ccn(-c2ccc(-c3ncco3)cc2)c(=O)c1-c1ccc2nc(N)ncc2c1 .
7.80

Please report the recorded pIC50 for Cc1ccn(-c2ccc(-n3cccn3)cc2)c(=O)c1-c1ccc2nc(N)ncc2c1 .
7.74
